Data provenance is patent US5563145A.

Tested on: cells from the thymus of normal BALB/c mice (T-cell proliferation)
experimental_details: comitogen-induced thymocyte proliferation procedure (LAF)
Type: cell-based
run_conditions: ratio >1: inhibited thymocyte proliferation to a greater extent than rapamycin
Would you mind telling me the reported LAF ratio (compared with rapamycin) of each entry?
One number for each entry.

Illustrative cases are given below, each with its answer.
compound	reported_result
CO[C@H]1C[C@@H]2CC[C@@H](C)[C@@](O)(O2)C(=O)C(=O)N2CCCC[C@H]2C(=O)O[C@H]([C@H](C)C[C@@H]2CCC(NO)[C@H](OC)C2)CC(=O)[C@H](C)/C=C(\C)[C@@H](O)[C@@H](OC)C(=O)[C@H](C)C[C@H](C)/C=C/C=C/C=C/1C (stereo partly shown) [Example 3, 42-Deoxo-42-(hydroxyamino)rapamycin]	0.18
CO[C@H]1C[C@@H]2CC[C@@H](C)[C@@](O)(O2)C(=O)C(=O)N2CCCC[C@H]2C(=O)O[C@H]([C@H](C)C[C@@H]2CCC(=NOC(N)=O)[C@H](OC)C2)CC(=O)[C@H](C)/C=C(\C)[C@@H](O)[C@@H](OC)C(=O)[C@H](C)C[C@H](C)/C=C/C=C/C=C/1C	0.25
CO[C@H]1C[C@@H]2CC[C@@H](C)[C@@](O)(O2)C(=O)C(=O)N2CCCC[C@H]2C(=O)O[C@H]([C@H](C)C[C@@H]2CCC(=NO)[C@H](OC)C2)CC(=O)[C@H](C)/C=C(\C)[C@@H](O)[C@@H](OC)C(=O)[C@H](C)C[C@H](C)/C=C/C=C/C=C/1C [Example 2, 42-Deoxo-42-(hydroxyimino)rapamycin]	0.85

Next up:
Tell us which LAF ratio (compared with rapamycin) value is on record for CO[C@H]1C[C@@H]2CC[C@@H](C)[C@@](O)(O2)C(=O)C(=O)N2CCCC[C@H]2C(=O)O[C@H]([C@H](C)C[C@@H]2CCC(=NOCc3ccccn3)[C@H](OC)C2)CC(=O)[C@H](C)/C=C(\C)[C@@H](O)[C@@H](OC)C(=O)[C@H](C)C[C@H](C)/C=C/C=C/C=C/1C
0.40

---

Test system: cells from the thymus of normal BALB/c mice (T-cell proliferation)
experimental_details: comitogen-induced thymocyte proliferation procedure (LAF)
Format: cell-based
run_conditions: BALB/c mouse thymocytes, PHA and IL-1, 72 hours, tritiated thymidine last six hours; read-out: LAF IC50
assay_endpoint: IC50 (nM)
Answers are plain numbers, in nM.

Illustrative cases are given below, each with its answer.
compound	IC50, nM
CO[C@H]1C[C@@H]2CC[C@@H](C)[C@@](O)(O2)C(=O)C(=O)N2CCCC[C@H]2C(=O)O[C@H]([C@H](C)C[C@@H]2CCC(NO)[C@H](OC)C2)CC(=O)[C@H](C)/C=C(\C)[C@@H](O)[C@@H](OC)C(=O)[C@H](C)C[C@H](C)/C=C/C=C/C=C/1C (stereo partly drawn) [Example 3, 42-Deoxo-42-(hydroxyamino)rapamycin]	5.6
CO[C@H]1C[C@@H]2CC[C@@H](C)[C@@](O)(O2)C(=O)C(=O)N2CCCC[C@H]2C(=O)O[C@H]([C@H](C)C[C@@H]2CCC(=NOCc3ccccn3)[C@H](OC)C2)CC(=O)[C@H](C)/C=C(\C)[C@@H](O)[C@@H](OC)C(=O)[C@H](C)C[C@H](C)/C=C/C=C/C=C/1C [Example 5]	1.5

Fetch value of IC50 on cells from the thymus of normal BALB/c mice (T-cell proliferation) for CO[C@H]1C[C@@H]2CC[C@@H](C)[C@@](O)(O2)C(=O)C(=O)N2CCCC[C@H]2C(=O)O[C@H]([C@H](C)C[C@@H]2CCC(=NOC(N)=O)[C@H](OC)C2)CC(=O)[C@H](C)/C=C(\C)[C@@H](O)[C@@H](OC)C(=O)[C@H](C)C[C@H](C)/C=C/C=C/C=C/1C [Example 4] .
2
